- assay.explanation: Cmax in mouse at 5 mg/kg, po
- Assay type: ADME, organism-based
- Design: dose 5 mg/kg, route oral
- measurement.context: in vivo
Rule: True for Cmax not less than 30 nM, False for anything less.

CC(=O)N1CCN(CCCOc2cccc(NC(=O)NC34CC5CC(CC(C5)C3)C4)c2)CC1    True
CC(C)(C)OC(=O)N1CCN(CCCCOc2cccc(NC(=O)NC34CC5CC(CC(C5)C3)C4)c2)CC1    False
CS(=O)(=O)N1CCN(CCCCOc2cccc(NC(=O)NC34CC5CC(CC(C5)C3)C4)c2)CC1    True

**Query** Reported Cmax reaches at least 30 nM for CC(=O)N1CCN(CCCOc2ccc(NC(=O)NC34CC5CC(CC(C5)C3)C4)cc2)CC1 ?
**Result** True

**Query** hey, is Cmax for this one >= 30 nM? CC(C)(C)OC(=O)N1CCN(CCCOc2cccc(NC(=O)NC34CC5CC(CC(C5)C3)C4)c2)CC1
**Result** False

**Query** Dear colleague, could you confirm whether CC(=O)N1CCN(CCCCOc2ccc(NC(=O)NC34CC5CC(CC(C5)C3)C4)cc2)CC1 has Cmax at or above 30 nM?
**Result** True

Where do these numbers come from? They come from ChEMBL document CHEMBL1629536.
